target: human CB2 receptors (Homo sapiens, UniProt P34972); construct: (cDNA clone) CNR0200000; test: cAMP assay in HEK-293 cells, hCB2 agonist; format: cell-based
Sequence (P34972 whole entry): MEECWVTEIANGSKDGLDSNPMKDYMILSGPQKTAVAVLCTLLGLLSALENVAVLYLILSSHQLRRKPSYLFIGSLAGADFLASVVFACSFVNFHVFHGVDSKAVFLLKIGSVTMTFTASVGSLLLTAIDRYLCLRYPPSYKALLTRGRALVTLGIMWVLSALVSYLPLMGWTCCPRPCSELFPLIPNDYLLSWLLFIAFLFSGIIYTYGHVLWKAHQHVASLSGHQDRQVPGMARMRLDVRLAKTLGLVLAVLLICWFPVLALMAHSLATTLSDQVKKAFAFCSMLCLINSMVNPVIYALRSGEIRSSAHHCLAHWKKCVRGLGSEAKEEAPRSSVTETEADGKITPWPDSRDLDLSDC
measured_quantity: EC50

compound	EC50
Cc1cc2cc(C(=O)c3ccncn3)sc2n1CCN1CCOCC1 [Compound 34]	1000 to 10000 nM
Cc1cc2cc(C(=O)c3cccc(Cl)c3Cl)sc2n1CCC1CCOCC1 [Compound 18]	< 100 nM
Cc1cc2cc(C(=O)c3ccc(OC(C)C)cc3)sc2n1CCN1CCOCC1 [Compound 111]	< 100 nM
COc1ccc(C(=O)c2cc3cc(C)n(CCN4CCCCC4)c3s2)c(Cl)c1 [Compound 90]	< 100 nM

EC50 reading for COc1ccc(C(=O)c2cc3cc(C)n(CC(OC)OC)c3s2)cn1 [Compound 161] : 100 to 1000 nM

EC50 reading for Cc1cc2cc(C(=O)c3ccc(Cl)cc3)sc2n1CCN1CCOCC1 [Compound 6] : < 100 nM

EC50 reading for COc1ccc(Cn2c(C)cc3cc(C(=O)c4ccc(OC)cc4)sc32)cc1 [Compound 103] : 100 to 1000 nM

EC50 reading for COc1ccc(C(=O)c2cc3cc(C)n(CCN4CCCCC4)c3s2)c(O)c1 [Compound 99] : < 100 nM

EC50 reading for COc1ccc(C(=O)c2cc3cc(C)n(CCCNS(=O)(=O)C(F)(F)F)c3s2)cc1 [Compound 154] : 100 to 1000 nM

EC50 reading for COc1cc(F)c(C(=O)c2cc3cc(C)n(CC4CCOCC4)c3s2)c(F)c1 [Compound 180] : < 100 nM
